# Tested on: U2OS
# Protocol Notes: Multiplex assay against U2OS
# Format: toxicity, cell-based
# Run Parameters: human, 24 h, 10 µM, compound concentration 10 uM, replicate 1
One threshold, 50%, splits the recorded Population Healthy Nuclei (%) values: lower ones are true (1), equal or higher ones are false (0).

* CN1CCN(CCOc2cc(OC3CCOCC3)c3c(Nc4c(Cl)ccc5c4OCO5)ncnc3c2)CC1 [SARACATINIB] | false (0)
* CCN(CC)CCCCNc1ncc2cc(-c3cc(OC)cc(OC)c3)c(NC(=O)NC(C)(C)C)nc2n1 [PD-173074] | false (0)
* Cc1sc2c(c1C)C(c1ccc(Cl)cc1)=N[C@@H](CC(=O)OC(C)(C)C)c1nnc(C)n1-2 | false (0)
* Cn1cc(-c2[nH]c3cc(NC(=O)[C@H](N)C4CCCCC4)cc4c3c2C=NNC4=O)cn1 | true (1)
* Cc1c(-c2ccc(O)cc2)n(Cc2ccc(OCCN3CCCCCC3)cc2)c2ccc(O)cc12 [BAZEDOXIFENE] | true (1)
* Cc1csc2c(N[C@@H](C)CN3CCN(S(=O)(=O)c4ccc(Cl)c(Cl)c4)CC3)ncnc12 | true (1)

Moving on to another compound below.
Problem: Determine whether this compound shows Population Healthy Nuclei (%) lower than 50% (ties excluded): c1cn2cc(-c3ccc4cn[nH]c4c3)nc(Nc3ccc(N4CCOCC4)cc3)c2n1 [ENTOSPLETINIB]
Solution: true (1)

----------
# Test system: U2OS
# Protocol Notes: Multiplex assay against U2OS
# Type: toxicity, cell-based
# Run Parameters: human, 24 h, 1 µM, compound concentration 1 uM, replicate 1
Is Population Hoechst High Intensity Objects (%) at least 6%? Then y. If not, n.

- Cc1nc(-c2cn3c(n2)-c2ccc(-c4cnn(C(C)(C)C(N)=O)c4)cc2OCC3)n(C(C)C)n1: n
- C[C@@]1(C(=O)Nc2ccc(F)nc2)CCCN1c1nc(Nc2cc(C3CC3)n[nH]2)c2cccn2n1: n
- CCN(CC)CCCCNc1ncc2cc(-c3cc(OC)cc(OC)c3)c(NC(=O)NC(C)(C)C)nc2n1: y

Problem: Is Population Hoechst High Intensity Objects (%) at least 6%? Consider C=CC(=O)Nc1cccc(C(=O)Nc2ccc(Nc3cc(-c4[nH]c(SC)nc4C)ccn3)cc2)c1
Solution: n

Problem: Is Population Hoechst High Intensity Objects (%) at least 6%? Consider Cc1nc(Nc2n[nH]c3c2CN(C(=O)N[C@H](CN(C)C)c2ccccc2)C3(C)C)c2sccc2n1
Solution: n

----------
# Test system: Fibroblast
# Protocol Notes: Multiplex assay against human fibroblast
# Type: toxicity, cell-based
# Run Parameters: 12 h, 10 µM, compound concentration 10 uM, replicate 1
Measured Parameter: Population Healthy Nuclei (%)
Give your result in % as a bare value.

See these solved cases before continuing.
- Cc1nc(-c2cn3c(n2)-c2ccc(-c4cnn(C(C)(C)C(N)=O)c4)cc2OCC3)n(C(C)C)n1: 65
- C=CC(=O)Nc1ccc2ncnc(Nc3ccc(OCc4cccc(F)c4)c(Cl)c3)c2c1.Cc1ccc(S(=O)(=O)O)cc1: 38
- COc1cccc([C@@H](C)NCCCc2ccccc2Cl)c1.Cl [TECALCET HYDROCHLORIDE]: 43
- C=CC(=O)Nc1cccc(C(=O)Nc2ccc(Nc3cc(-c4[nH]c(SC)nc4C)ccn3)cc2)c1: 50

Problem: Which measured Population Healthy Nuclei (%) belongs to c1cn2cc(-c3ccc4cn[nH]c4c3)nc(Nc3ccc(N4CCOCC4)cc3)c2n1 , tested on Fibroblast?
Solution: 3

Problem: Which measured Population Healthy Nuclei (%) belongs to CC[C@H](C)C(=O)O[C@H]1C[C@@H](C)C=C2C=C[C@H](C)[C@H](CC[C@@H]3C[C@@H](O)CC(=O)O3)[C@H]21 , tested on Fibroblast?
Solution: 45

Problem: Which measured Population Healthy Nuclei (%) belongs to Cc1[nH]c(/C=C2\C(=O)Nc3ccc(S(=O)(=O)N(C)c4cccc(Cl)c4)cc32)c(C)c1C(=O)N1CCN(C)CC1 , tested on Fibroblast?
Solution: 61

Problem: Which measured Population Healthy Nuclei (%) belongs to CC(C)NCC(O)COc1ccc(CCOCC2CC2)cc1.Cl (configuration not stated) [BETAXOLOL HYDROCHLORIDE] , tested on Fibroblast?
Solution: 55

Problem: Which measured Population Healthy Nuclei (%) belongs to CN1CCCC(n2nc(Cc3ccc(Cl)cc3)c3ccccc3c2=O)CC1.Cl (configuration not stated) [AZELASTINE HYDROCHLORIDE] , tested on Fibroblast?
Solution: 38

Problem: Which measured Population Healthy Nuclei (%) belongs to OC1(c2ccc(Cl)cc2)CCN(Cc2c[nH]c3ccccc23)CC1 , tested on Fibroblast?
Solution: 38

Problem: Which measured Population Healthy Nuclei (%) belongs to Cc1cc(C)cc(-c2cnc3cc(Cl)c(-c4cccc(O)c4)cc3c2OCCCN)c1 , tested on Fibroblast?
Solution: 10

Problem: Which measured Population Healthy Nuclei (%) belongs to COc1cc2nccc(Oc3ccc(NC(=O)Nc4cc(C)on4)c(Cl)c3)c2cc1OC.O , tested on Fibroblast?
Solution: 31

Problem: Which measured Population Healthy Nuclei (%) belongs to C[C@@H](NCCCc1cccc(C(F)(F)F)c1)c1cccc2ccccc12.Cl [CINACALCET HYDROCHLORIDE] , tested on Fibroblast?
Solution: 35

Problem: Which measured Population Healthy Nuclei (%) belongs to CN(C)C(=O)/C(C#N)=C/c1ccc(-c2nc3cnc4[nH]ccc4c3n2C2CCCCC2)o1 , tested on Fibroblast?
Solution: 38

Problem: Which measured Population Healthy Nuclei (%) belongs to Cc1nc(Nc2n[nH]c3c2CN(C(=O)N[C@H](CN(C)C)c2ccccc2)C3(C)C)c2sccc2n1 , tested on Fibroblast?
Solution: 51

Problem: Which measured Population Healthy Nuclei (%) belongs to CN1CCN(c2ccc(OC(F)(F)F)c(Nc3ncc4c(n3)-c3c(c(C(N)=O)nn3CCO)CC4)c2)CC1 , tested on Fibroblast?
Solution: 36

Problem: Which measured Population Healthy Nuclei (%) belongs to CN(C)CC#Cc1ccc(OCCCc2sc(N3CCc4cccc(C(=O)Nc5nc6ccccc6s5)c4C3)nc2C(=O)O)c(F)c1 , tested on Fibroblast?
Solution: 41

----------
# Tested on: Fibroblast
# Protocol Notes: Multiplex assay against human fibroblast
# Format: toxicity, cell-based
# Run Parameters: 12 h, 10 µM, compound concentration 10 uM, replicate 2
Is Population Healthy Nuclei (%) at least 70%? Then t. If not, f.

Example entries and their recorded answers appear below.
* CN1CCN(c2ccc(OC(F)(F)F)c(Nc3ncc4c(n3)-c3c(c(C(N)=O)nn3CCO)CC4)c2)CC1 | t
* O=C1NCN(c2ccccc2)C12CCN(CCCOc1ccc(F)cc1)CC2 [SPIRAMIDE] | t
* C=CC(=O)Nc1ccc2ncnc(Nc3ccc(OCc4cccc(F)c4)c(Cl)c3)c2c1.Cc1ccc(S(=O)(=O)O)cc1 | t
* COc1ncc(-c2ccc3nccc(-c4ccnnc4)c3c2)cc1NS(=O)(=O)c1ccc(F)cc1F | f
* Cc1nc(-c2cn3c(n2)-c2ccc(-c4cnn(C(C)(C)C(N)=O)c4)cc2OCC3)n(C(C)C)n1 | f
* Cc1csc2c(N[C@@H](C)CN3CCN(S(=O)(=O)c4ccc(Cl)c(Cl)c4)CC3)ncnc12 | f
* CC(C)NCC(O)COc1ccc(CCOCC2CC2)cc1.Cl (stereo unspecified) [BETAXOLOL HYDROCHLORIDE] | t
* CN(C)C(=O)/C(C#N)=C/c1ccc(-c2nc3cnc4[nH]ccc4c3n2C2CCCCC2)o1 | f
* COc1cc2nccc(Oc3ccc(NC(=O)Nc4cc(C)on4)c(Cl)c3)c2cc1OC.O | t
* CCN(CC)CCCCNc1ncc2cc(-c3cc(OC)cc(OC)c3)c(NC(=O)NC(C)(C)C)nc2n1 | f

Problem: Is Population Healthy Nuclei (%) at least 70%? Consider C=CC(=O)Nc1cccc(C(=O)Nc2ccc(Nc3cc(-c4[nH]c(SC)nc4C)ccn3)cc2)c1
Solution: t

Problem: Is Population Healthy Nuclei (%) at least 70%? Consider Cc1cc(C)cc(-c2cnc3cc(Cl)c(-c4cccc(O)c4)cc3c2OCCCN)c1
Solution: f

Problem: Is Population Healthy Nuclei (%) at least 70%? Consider Cc1nc(-c2ccc(-c3ccc(C(=O)N4CCc5cc6c(cc54)C4(CCN(C)CC4)CO6)cc3)c(C)c2)no1
Solution: t

Problem: Is Population Healthy Nuclei (%) at least 70%? Consider CN(C)CC#Cc1ccc(OCCCc2sc(N3CCc4cccc(C(=O)Nc5nc6ccccc6s5)c4C3)nc2C(=O)O)c(F)c1
Solution: f

Problem: Is Population Healthy Nuclei (%) at least 70%? Consider CC[C@H](C)C(=O)O[C@H]1C[C@@H](C)C=C2C=C[C@H](C)[C@H](CC[C@@H]3C[C@@H](O)CC(=O)O3)[C@H]21
Solution: t

These data points were gathered from ChEMBL document CHEMBL4689842.
